Cited source: patent US8048899B2

Please go through the items and note down their pEC50.
# TESTED_ON: human CB2R (Homo sapiens)
# Construct: host or cells: CHO cells
# Sequence (P34972 whole entry): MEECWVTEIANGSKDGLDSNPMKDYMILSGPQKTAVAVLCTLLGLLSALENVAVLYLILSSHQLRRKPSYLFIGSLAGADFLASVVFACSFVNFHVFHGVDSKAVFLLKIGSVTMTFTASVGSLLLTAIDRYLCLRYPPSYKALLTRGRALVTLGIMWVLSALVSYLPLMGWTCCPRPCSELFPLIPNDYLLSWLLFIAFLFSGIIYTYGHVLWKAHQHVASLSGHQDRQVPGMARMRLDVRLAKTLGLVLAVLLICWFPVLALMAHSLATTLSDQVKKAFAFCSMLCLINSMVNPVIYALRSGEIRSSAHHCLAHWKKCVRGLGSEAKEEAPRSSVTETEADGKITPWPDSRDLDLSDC
# METHOD_SUMMARY: CB2R mediated modulation of cAMP synthesis
# Assay type: cell-based
Numbers only, as −log10 of the molar value.

// known answers, use as guide
CHEMICAL_STRING | QUANTITY_MEASURED | ASSAY_RESULT
CC(C)(C(=O)Nc1nnc(-c2ccc(O)cc2)[nH]1)S(=O)(=O)CC1CCOCC1 | pEC50 | 7.00
CC(C)(O)c1cc(NC(=O)C(C)(C)S(=O)(=O)CCCC(F)(F)F)on1 | pEC50 | 7.31
CC(C)(C(=O)Nc1nnc(-c2ccc(O)cc2)[nH]1)S(=O)(=O)C1CCOCC1 | pEC50 | 8.30
CC(C)(CO)c1nnc(NC(=O)C(C)(C)S(=O)(=O)C2CCOCC2)s1 | pEC50 | 7.32
COc1ccc(-c2nnc(NC(=O)C(C)(C)S(=O)(=O)CC3CCC3)[nH]2)c(F)c1 | pEC50 | 8.12

Each compound below has a recorded value; state its pEC50.
1. COc1ccc(-c2nnc(NC(=O)C(C)(C)S(=O)(=O)N3CCC3)[nH]2)cc1
2. CC(C)(CO)c1nnc(NC(=O)C(C)(C)S(=O)(=O)C[C@H]2CCCCO2)s1
3. CC(C)(CO)c1cc(NC(=O)C(C)(C)S(=O)(=O)c2ccc(F)cc2)no1
4. CC(C)(C(=O)Nc1nnc(-c2ccc(O)cc2)[nH]1)S(=O)(=O)CC1CC1

### Response
[7.49, 7.55, 7.35, 7.47]

Hey, can you go through the list below and give me pEC50 for every item?
1. CC(C)(CO)c1cc(NC(=O)C(C)(C)S(=O)(=O)c2ccc(F)cc2)on1
2. CC(C)(C(=O)Nc1cc(C2(CO)CCC2)no1)S(=O)(=O)CC1CCC1
3. CC(C)(CO)c1cc(NC(=O)C(C)(C)S(=O)(=O)C2CCCC2)on1

### Response
[7.52, 7.13, 7.12]

I'm hoping you can list pEC50 for every compound here, please.
1. COc1ccc(-c2nnc(NC(=O)C(C)(C)S(=O)(=O)CC3CC3)[nH]2)c(F)c1
2. COc1ccc(-c2nnc(NC(=O)C(C)(C)S(=O)(=O)CC3CC3)[nH]2)cc1
3. COc1ccc(-c2nnc(NC(=O)C(C)(C)S(=O)(=O)N3CC[C@@H](F)C3)[nH]2)cc1
4. CC(C)(C(=O)Nc1cc(C2(CO)CCCC2)no1)S(=O)(=O)C1CCCC1
5. CC(C)(C(=O)Nc1cc(C2(CO)CCCCC2)no1)S(=O)(=O)CC1CCC1
6. COc1ccc(-c2nnc(NC(=O)C(C)(C)S(=O)(=O)C3CCCC3)[nH]2)cc1
7. CC(C)(CO)c1cc(NC(=O)C(C)(C)S(=O)(=O)CC[C@@H]2CCOC2)on1
8. COCC(C)(C)c1cc(NC(=O)C(C)(C)S(=O)(=O)C2CCOCC2)on1

### Response
1: 7.47; 2: 7.49; 3: 7.48; 4: 7.35; 5: 7.17; 6: 7.85; 7: 7.85; 8: 8.51

Each of the following entries comes with a recorded value; kindly state pEC50 for each.
1. COc1ccccc1-c1n[nH]c(NC(=O)C(C)(C)S(=O)(=O)CC2CC2)n1
2. COc1ccc(-c2nnc(NC(=O)C(C)(C)S(=O)(=O)C3CCOCC3)[nH]2)cc1
3. CC(C)(CO)c1cc(NC(=O)C(C)(C)S(=O)(=O)c2cccc(F)c2F)no1
4. CC(C)(CO)c1cc(NC(=O)C(C)(C)S(=O)(=O)CCCC(F)(F)F)no1
5. CC[C@H](C)S(=O)(=O)C(C)(C)C(=O)Nc1nnc(-c2ccc(OC)cc2)[nH]1
6. CC(C)(CO)c1cc(NC(=O)C(C)(C)S(=O)(=O)CC2CCC2)no1

### Response
1: 7.82; 2: 9.18; 3: 7.16; 4: 7.60; 5: 7.33; 6: 7.02

Can you give me pEC50 for all of these, one by one?
1. CC[C@H](C)S(=O)(=O)C(C)(C)C(=O)Nc1cc(C2(CO)CCCC2)no1
2. CC(C)(CO)c1cc(NC(=O)C(C)(C)S(=O)(=O)C2CCOCC2)on1
3. CC(C)(CO)c1cc(NC(=O)C(C)(C)S(=O)(=O)CC2CCC(=O)CC2)on1
4. CC(C)(C(=O)Nc1nnc(-c2ccc(O)cc2)[nH]1)S(=O)(=O)c1ccc(F)cc1
5. COc1ccc(-c2nnc(NC(=O)C(C)(C)S(=O)(=O)CC3CCOCC3)[nH]2)cc1
6. CC(C)(CO)c1cc(NC(=O)C(C)(C)S(=O)(=O)C2CCN(S(C)(=O)=O)CC2)on1
7. CC(C)CCS(=O)(=O)C(C)(C)C(=O)Nc1cc(C2(CO)CC2)no1
8. CCOCC(C)(C)c1cc(NC(=O)C(C)(C)S(=O)(=O)C2CCOCC2)on1

### Response
7.09
7.96
7.17
8.40
8.02
7.85
7.85
8.44

Please report pEC50 for every entry that follows.
1. CC(C)(CO)c1cc(NC(=O)C(C)(C)S(=O)(=O)CC[C@H]2CCOC2)on1
2. COCC(C)(C)c1cc(NC(=O)C(C)(C)S(=O)(=O)C2CCN(S(C)(=O)=O)CC2)no1
3. CC(C)CCS(=O)(=O)C(C)(C)C(=O)Nc1nnc(C(C)(C)CO)s1
4. CC(C)(C(=O)Nc1cc(C2(CO)CCC2)no1)S(=O)(=O)C1CCOCC1
5. COCC(C)(C)c1cc(NC(=O)C(C)(C)S(=O)(=O)C2CCCC2)on1

### Response
1. 8.21
2. 8.21
3. 7.74
4. 7.11
5. 7.82

---

# TESTED_ON: human CB1R (Homo sapiens, UniProt P21554)
# Construct: host or cells: CHO cells
# Sequence (P21554 whole entry): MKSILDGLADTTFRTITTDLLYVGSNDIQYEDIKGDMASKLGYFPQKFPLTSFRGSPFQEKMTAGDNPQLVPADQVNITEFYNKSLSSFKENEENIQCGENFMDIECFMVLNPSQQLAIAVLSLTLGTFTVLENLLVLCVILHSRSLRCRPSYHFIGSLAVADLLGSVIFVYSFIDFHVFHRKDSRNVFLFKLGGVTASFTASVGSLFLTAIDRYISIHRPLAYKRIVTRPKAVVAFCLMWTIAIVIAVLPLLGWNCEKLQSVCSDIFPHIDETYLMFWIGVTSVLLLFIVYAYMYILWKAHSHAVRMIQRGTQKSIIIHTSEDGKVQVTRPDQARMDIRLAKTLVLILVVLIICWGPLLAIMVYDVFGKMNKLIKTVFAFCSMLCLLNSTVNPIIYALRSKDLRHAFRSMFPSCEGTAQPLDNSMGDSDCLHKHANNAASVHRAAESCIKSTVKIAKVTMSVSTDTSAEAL
# METHOD_SUMMARY: CB1R mediated modulation of cAMP synthesis
# Type: cell-based
Provide the recorded EC50 for the entries that follow.

// below: answered compounds
CHEMICAL_STRING | TESTED_ON | ASSAY_RESULT
COc1ccc(-c2nnc(NC(=O)C(C)(C)S(=O)(=O)N3CCC3)[nH]2)cc1 | human CB1R (Homo sapiens, UniProt P21554) | > 20 µM
COc1ccc(-c2nnc(NC(=O)C(C)(C)S(=O)(=O)C3CCCC3)[nH]2)cc1 | human CB1R (Homo sapiens, UniProt P21554) | > 20 µM
CC(C)(C(=O)Nc1nnc(-c2ccc(O)cc2)[nH]1)S(=O)(=O)c1ccc(F)cc1 | human CB1R (Homo sapiens, UniProt P21554) | > 20 µM
COc1ccc(-c2nnc(NC(=O)C(C)(C)S(=O)(=O)CC(C)C)[nH]2)cc1 | human CB1R (Homo sapiens, UniProt P21554) | > 20 µM

Provide reported EC50 for each item, in the same order as listed.
1. CC[C@H](C)S(=O)(=O)C(C)(C)C(=O)Nc1cc(C2(CO)CCCC2)no1
2. CC(C)(C(=O)Nc1cc(C2(CO)CCCC2)no1)S(=O)(=O)C1CCCC1
3. CC(C)(C(=O)Nc1nc(-c2ccccc2O)n[nH]1)S(=O)(=O)C1CCOCC1
4. COc1ccc(-c2nnc(NC(=O)C(C)(C)S(=O)(=O)CC3CC3)[nH]2)c(F)c1

### Response
["> 20 µM", "> 20 µM", "> 20 µM", "> 50 µM"]

---

# TESTED_ON: human CB2R (Homo sapiens)
# Construct: host or cells: CHO cells
# METHOD_SUMMARY: CB2R mediated modulation of cAMP synthesis
# Type: cell-based
# STATED_CONDITIONS: CHO cells expressing human CB2R; inhibition of forskolin-stimulated cAMP synthesis; read-out: CB2 EC50
Give measured pEC50 for each item. Keep answers brief.
Numbers only, as −log10 of the molar value.

CHEMICAL_STRING | QUANTITY_MEASURED | ASSAY_RESULT
CC(C)(CO)c1cc(NC(=O)C(C)(C)S(=O)(=O)C2CCCC2)no1 | pEC50 | 6.65
CC(C)(CO)c1cc(NC(=O)C(C)(C)S(=O)(=O)CC2CCOCC2)on1 | pEC50 | 7.41
CC(C)(CO)c1cc(NC(=O)C(C)(C)S(=O)(=O)c2cccc(F)c2F)on1 | pEC50 | 6.76
CC[C@H](C)S(=O)(=O)C(C)(C)C(=O)Nc1cc(C(C)(C)CO)no1 | pEC50 | 6.93

Field: pEC50. Fill in for each record below.
1. CC(C)(CO)c1cc(NC(=O)C(C)(C)S(=O)(=O)CCC(F)(F)F)on1
2. CC(C)(CO)c1cc(NC(=O)C(C)(C)S(=O)(=O)N2CCC2)on1
3. COCC(C)(C)c1cc(NC(=O)C(C)(C)S(=O)(=O)CC2CC2)no1
4. COCC(C)(C)c1cc(NC(=O)C(C)(C)S(=O)(=O)CC2CC2)on1
5. CC(C)(C(=O)Nc1nnc(-c2ccc(OC(F)(F)F)cc2)[nH]1)S(=O)(=O)CC1CCOCC1

### Response
1: 6.98; 2: 6.54; 3: 6.92; 4: 6.92; 5: 6.47

Here are 4 compounds. What values of pEC50 were reported for them?
1. COc1ccc(-c2nnc(NC(=O)C(C)(C)S(=O)(=O)CC3(C)CCOCC3)[nH]2)cc1
2. CC(C)(C(=O)Nc1nc(-c2cccc(O)c2)n[nH]1)S(=O)(=O)C1CCOCC1
3. CC(C)(CO)c1cc(NC(=O)C(C)(C)S(=O)(=O)CCCC(F)(F)F)on1
4. CC(C)(CO)c1cc(NC(=O)C2(S(=O)(=O)C3CCOCC3)CCC2)on1

### Response
1. 6.73
2. 6.89
3. 7.82
4. 6.67

Give pEC50 for each of the items listed below.
1. CC(C)(CO)c1cc(NC(=O)C(C)(C)S(=O)(=O)CC2CCOCC2)no1
2. CC(C)(C(=O)Nc1cc(C2(CO)CC2)no1)S(=O)(=O)C1CCOCC1
3. CC(C)(C(=O)Nc1nnc(-c2ccc(OC(F)(F)F)cc2)[nH]1)S(=O)(=O)C1CCOCC1
4. CCOc1ccc(-c2n[nH]c(NC(=O)C(C)(C)S(=O)(=O)CC3CC3)n2)cc1
5. CC(C)(C(=O)Nc1nc(-c2cccc(O)c2)n[nH]1)S(=O)(=O)CC1CC1
6. CC(C)(C(=O)Nc1cc(C2(CO)CC2)no1)S(=O)(=O)CCCC(F)(F)F
7. COCC(C)(C)c1cc(NC(=O)C(C)(C)S(=O)(=O)CC2CCOCC2)no1
8. CCOc1ccc(-c2nnc(NC(=O)C(C)(C)S(=O)(=O)C3CCOCC3)[nH]2)cc1

### Response
1: 6.68; 2: 6.93; 3: 6.71; 4: 6.31; 5: 6.55; 6: 6.61; 7: 6.86; 8: 6.68
